B1: TPR 5TU (parent)
chain: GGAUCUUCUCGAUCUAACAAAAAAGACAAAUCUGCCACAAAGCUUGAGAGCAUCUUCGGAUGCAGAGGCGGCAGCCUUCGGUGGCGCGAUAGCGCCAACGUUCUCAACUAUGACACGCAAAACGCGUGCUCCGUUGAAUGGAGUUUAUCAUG

- Variants of: B1
- procedure text: polymerase ribozyme fitness, log enrichment relative to wild type (log ratio); higher = more active; in vitro selection for triplet polymerase activity
Fewer inactive variants are shown than the library holds.
recorded endpoint: polymerase ribozyme fitness (log ratio)
// return a plain number; no unit text

Below, each entry is followed by its recorded polymerase ribozyme fitness (log ratio) result.
U82G G86A C96A : -2.04
C96U A142G : -1.18
C18U G83A : -0.637
C35A A37G U56A U61A : -3.7
G50C A52C : -2.71

Fill in: polymerase ribozyme fitness (log ratio) of U82C C114U is ___ -1.99

What do you have for A89C C96U ? -1.26

Field entry: G58C A98U -0.459

Cool, now G86A U102G -4.05

Also A12U C51U ? -2.53
